# EXPERIMENTAL_DETAILS: AP1 Signaling Pathway (AID 357);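 note: ME-180 reporter cells stimulated with EGF at its EC50 level; % is set by controls: 0 for no effect and ±100 for the full control effect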
# MEASUREMENT_PARAMETERS: ME-180 (cervical carcinoma) AP-1-bla reporter, EGF-induced, beta-lactamase ratio, 5 h; at 7.69 µM (top of the series) unless noted
Records with an inconclusive call do not appear. Activity calls are given as the source filed them. Calls come from the whole dose curve; as a rule, active = well fitted curve in either direction with a large enough effect (not every such curve was filed as active); inconclusive = small, poorly fitted or top-dose-only effect, or another doubt; inactive = flat fitted curve, though single readings scatter.
ENDPOINT_LABEL: activity change, negative = inhibition

What does the record list as activity change, negative = inhibition for `Nc1nc(N)c(Cn2ccnc2)c(=O)[nH]1` ?
-1.23% (inactive)

So what's the measured activity change, negative = inhibition for this one? `Oc1ccc(CCNCc2cc3c(cc2Br)OCO3)cc1`
-4.32% (inactive)

Need activity change, negative = inhibition, item `CCSCC[C@H](N)C(=O)O`
4.84% (inactive)
